Molecular target: 11 β-HSD type 2 (Rattus norvegicus, UniProt P50233)
Construct: Both the kidneys and livers were homogenised on ice in PBS-sucrose buffer; tissue Harlan Olac (rats); host or cells: Wistar rat kidney homogenate supernatant
Sequence (P50233 1-400): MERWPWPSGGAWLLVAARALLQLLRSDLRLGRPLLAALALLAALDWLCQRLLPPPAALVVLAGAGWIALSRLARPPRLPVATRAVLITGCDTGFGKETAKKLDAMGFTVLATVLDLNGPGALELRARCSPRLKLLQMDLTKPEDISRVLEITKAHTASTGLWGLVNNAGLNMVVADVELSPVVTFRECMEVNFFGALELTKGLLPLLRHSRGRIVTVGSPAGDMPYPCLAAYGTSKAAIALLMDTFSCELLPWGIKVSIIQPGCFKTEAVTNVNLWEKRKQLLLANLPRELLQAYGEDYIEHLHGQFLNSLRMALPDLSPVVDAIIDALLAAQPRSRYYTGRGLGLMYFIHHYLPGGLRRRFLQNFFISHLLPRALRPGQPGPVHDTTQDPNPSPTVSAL
Experiment: 11 β-HSD type 2 inhibition, rat kidney homogenate, conversion F to E (radiometric TLC)
Type: biochemical
Settings: read-out: % inhibition of 11β HSD2 @ 10 μM, typical sd ± 5%, means n=2
Assay endpoint: inhibition at 10 µM (%)

[
  {
    "Smiles code": "Cc1nc2cc(NS(=O)(=O)c3ccc(Br)cc3C)ccc2s1",
    "Assay endpoint": "inhibition at 10 µM",
    "Quantitative readout": 8
  },
  {
    "Smiles code": "CCN(CC)C(=O)CSc1nc2ccc(NS(=O)(=O)c3cccc(Cl)c3C)cc2s1",
    "Assay endpoint": "inhibition at 10 µM",
    "Quantitative readout": 8
  },
  {
    "Smiles code": "Cc1nc2cc(NS(=O)(=O)c3ccc(Br)cc3)ccc2s1",
    "Assay endpoint": "inhibition at 10 µM",
    "Quantitative readout": 8
  }
]

----------
target: 11 β-HSD type 1 (Rattus norvegicus); construct: Both the kidneys and livers were homogenised on ice in PBS-sucrose buffer; tissue Harlan Olac (rats); host or cells: Wistar rat liver homogenate supernatant; assay: 11 β-HSD type 1 inhibition, rat liver homogenate, conversion E to F (radiometric TLC); assay type: biochemical; conditions: read-out: % inhibition of 11β HSD1 @ 10 μM, 10 μM, typical sd ± 5%, means n=2
Sequence (P16232 whole entry): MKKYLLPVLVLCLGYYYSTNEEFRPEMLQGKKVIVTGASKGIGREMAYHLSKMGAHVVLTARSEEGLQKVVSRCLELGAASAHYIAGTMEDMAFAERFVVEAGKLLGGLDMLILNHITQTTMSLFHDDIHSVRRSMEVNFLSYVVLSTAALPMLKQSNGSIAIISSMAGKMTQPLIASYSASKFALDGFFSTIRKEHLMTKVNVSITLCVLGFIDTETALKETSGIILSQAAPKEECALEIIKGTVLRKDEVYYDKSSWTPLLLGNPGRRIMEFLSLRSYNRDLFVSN
Some compounds, each annotated with its measured inhibition at 10 µM.
Assay endpoint: inhibition at 10 µM (%)

[
  {
    "Smiles code": "Cc1nc2cc(NS(=O)(=O)c3ccc(C(C)(C)C)cc3)ccc2s1",
    "Assay endpoint": "inhibition at 10 µM",
    "Readout units": "%",
    "Quantitative readout": 10
  },
  {
    "Smiles code": "Cc1nc2cc(NS(=O)(=O)c3c(C)c(C)c4c(c3C)CCC(C)(C)O4)ccc2s1",
    "Assay endpoint": "inhibition at 10 µM",
    "Readout units": "%",
    "Quantitative readout": 26
  },
  {
    "Smiles code": "COC(=O)c1ccccc1S(=O)(=O)Nc1ccc2sc(C)nc2c1",
    "Assay endpoint": "inhibition at 10 µM",
    "Readout units": "%",
    "Quantitative readout": 6
  }
]
